system: Klebsiella pneumoniae KPC-119; test: percent growth inhibition of drug + antibiotic vs DMSO control; higher = more growth inhibition; conditions: antibiotic (0.125x MIC): colistin; 20 µM
Structures can show the parent of a compound that is named as a salt.
Quick list: percent growth inhibition per entry.
MEASUREMENT_LABEL: percent growth inhibition (%)

COMPOUND: CN(C)CCOC(c1ccc(Cl)cc1)c1ccccn1 (configuration not stated) [Carbinoxamine maleate salt]
TARGET_OF_ASSAY: Klebsiella pneumoniae KPC-119
MEASUREMENT_LABEL: percent growth inhibition
RECORDED_NUMBER: -10.7
//
COMPOUND: CCN(CC)CCOC(=O)C1(C2CCCCC2)CCCCC1 [Dicyclomine hydrochloride]
TARGET_OF_ASSAY: Klebsiella pneumoniae KPC-119
MEASUREMENT_LABEL: percent growth inhibition
RECORDED_NUMBER: -2.28
//
COMPOUND: CC[C@H]1OC(=O)[C@H](C)[C@@H](O[C@H]2C[C@@](C)(OC)[C@@H](O)[C@H](C)O2)[C@H](C)[C@@H](O[C@@H]2O[C@H](C)C[C@H](N(C)C)[C@H]2O)[C@](C)(O)C[C@@H](C)CN(C)[C@H](C)[C@@H](O)[C@]1(C)O [Azithromycin]
TARGET_OF_ASSAY: Klebsiella pneumoniae KPC-119
MEASUREMENT_LABEL: percent growth inhibition
RECORDED_NUMBER: 98.8
//
COMPOUND: CN(C(=O)CN(CCO)CC(=O)N(C)C(C)(C)Cc1ccccc1)C(C)(C)Cc1ccccc1 [Oxethazaine]
TARGET_OF_ASSAY: Klebsiella pneumoniae KPC-119
MEASUREMENT_LABEL: percent growth inhibition
RECORDED_NUMBER: 95.6
//
COMPOUND: CO[C@@H]1[C@@H](OC(N)=O)[C@@H](O)[C@H](Oc2ccc3c(O)c(NC(=O)c4ccc(O)c(CC=C(C)C)c4)c(=O)oc3c2C)OC1(C)C [Novobiocin sodium salt]
TARGET_OF_ASSAY: Klebsiella pneumoniae KPC-119
MEASUREMENT_LABEL: percent growth inhibition
RECORDED_NUMBER: 98.5
//
COMPOUND: CC1=C(/C=C/C(C)=C/C=C/C(C)=C/C(=O)O)C(C)(C)CCC1 [Retinoic acid]
TARGET_OF_ASSAY: Klebsiella pneumoniae KPC-119
MEASUREMENT_LABEL: percent growth inhibition
RECORDED_NUMBER: -10.3
//
COMPOUND: COc1cccc2c1C(=O)c1c(O)c3c(c(O)c1C2=O)C[C@@](O)(C(C)=O)C[C@@H]3O[C@H]1C[C@H](N)[C@H](O)[C@H](C)O1 [Daunorubicin hydrochloride]
TARGET_OF_ASSAY: Klebsiella pneumoniae KPC-119
MEASUREMENT_LABEL: percent growth inhibition
RECORDED_NUMBER: 97.2
//
COMPOUND: CN(C)CCCN1c2ccccc2Sc2ccc(Cl)cc21 [Chlorpromazine hydrochloride]
TARGET_OF_ASSAY: Klebsiella pneumoniae KPC-119
MEASUREMENT_LABEL: percent growth inhibition
RECORDED_NUMBER: 2.49
//
COMPOUND: CC[C@H]1OC(=O)[C@H](C)[C@@H](O[C@H]2C[C@@](C)(OC)[C@@H](O)[C@H](C)O2)[C@H](C)[C@@H](O[C@@H]2O[C@H](C)C[C@H](N(C)C)[C@H]2O)[C@](C)(OC)C[C@@H](C)C(=O)[C@H](C)[C@@H](O)[C@]1(C)O [Clarithromycin]
TARGET_OF_ASSAY: Klebsiella pneumoniae KPC-119
MEASUREMENT_LABEL: percent growth inhibition
RECORDED_NUMBER: 3.22
//
COMPOUND: CC(C)(C)CC(C)(C)c1ccc(OCCOCC[N+](C)(C)Cc2ccccc2)cc1 [Benzethonium chloride]
TARGET_OF_ASSAY: Klebsiella pneumoniae KPC-119
MEASUREMENT_LABEL: percent growth inhibition
RECORDED_NUMBER: 97.2
//
COMPOUND: CN(C)c1ccc(O)c2c1C[C@H]1C[C@H]3[C@H](N(C)C)C(O)=C(C(N)=O)C(=O)[C@@]3(O)C(O)=C1C2=O [Minocycline hydrochloride]
TARGET_OF_ASSAY: Klebsiella pneumoniae KPC-119
MEASUREMENT_LABEL: percent growth inhibition
RECORDED_NUMBER: 97.8
//
COMPOUND: O=C1OCCN1/N=C/c1ccc([N+](=O)[O-])o1 [Furazolidone]
TARGET_OF_ASSAY: Klebsiella pneumoniae KPC-119
MEASUREMENT_LABEL: percent growth inhibition
RECORDED_NUMBER: 99.6
//
COMPOUND: Oc1c(I)cc(Cl)c2cccnc12 [Clioquinol]
TARGET_OF_ASSAY: Klebsiella pneumoniae KPC-119
MEASUREMENT_LABEL: percent growth inhibition
RECORDED_NUMBER: 99
//
COMPOUND: CC1CCc2cc(F)cc3c(=O)c(C(=O)O)cn1c23 (configuration not stated) [Flumequine]
TARGET_OF_ASSAY: Klebsiella pneumoniae KPC-119
MEASUREMENT_LABEL: percent growth inhibition
RECORDED_NUMBER: 95.6
//
COMPOUND: COc1cnc(NS(=O)(=O)c2ccc(N)cc2)nc1 [Sulfameter]
TARGET_OF_ASSAY: Klebsiella pneumoniae KPC-119
MEASUREMENT_LABEL: percent growth inhibition
RECORDED_NUMBER: -5.03
//
COMPOUND: CCCCCCCCNC(C)C(O)c1ccc(SC(C)C)cc1 (configuration not stated) [Suloctidil]
TARGET_OF_ASSAY: Klebsiella pneumoniae KPC-119
MEASUREMENT_LABEL: percent growth inhibition
RECORDED_NUMBER: 94.6
//
COMPOUND: CCCCC(CC)CNC(=N)NC(=N)NCCCCCCNC(=N)NC(=N)NCC(CC)CCCC (configuration not stated) [Alexidine dihydrochloride]
TARGET_OF_ASSAY: Klebsiella pneumoniae KPC-119
MEASUREMENT_LABEL: percent growth inhibition
RECORDED_NUMBER: 94.8

* * *

tested on: Escherichia coli ATCC BAA-2469; assay: percent growth inhibition of drug + antibiotic vs DMSO control; higher = more growth inhibition; settings: antibiotic (0.125x MIC): meropenem; 20 µM
MEASUREMENT_LABEL: percent growth inhibition (%)

COMPOUND: CO[C@H]1/C=C/O[C@@]2(C)Oc3c(C)c(O)c4c(c3C2=O)C2=NC3(CCN(CC(C)C)CC3)NC2=C(NC(=O)/C(C)=C\C=C\[C@H](C)[C@H](O)[C@@H](C)[C@@H](O)[C@@H](C)[C@H](OC(C)=O)[C@@H]1C)C4=O
UNITS_SYMBOL: %
RECORDED_NUMBER: 111
//
COMPOUND: Cc1cc(N)c2ccccc2[n+]1CCCCCCCCCC[n+]1c(C)cc(N)c2ccccc21 [Dequalinium dichloride]
UNITS_SYMBOL: %
RECORDED_NUMBER: 34.5
//
COMPOUND: Nc1nc(=S)c2ncn([C@@H]3O[C@H](CO)[C@@H](O)[C@H]3O)c2[nH]1
UNITS_SYMBOL: %
RECORDED_NUMBER: 81.6
//
COMPOUND: O=C1OCCN1/N=C/c1ccc([N+](=O)[O-])o1
UNITS_SYMBOL: %
RECORDED_NUMBER: 113
//
COMPOUND: N=C(NCCCCCCNC(=N)NC(=N)Nc1ccc(Cl)cc1)NC(=N)Nc1ccc(Cl)cc1
UNITS_SYMBOL: %
RECORDED_NUMBER: 99.2
//
COMPOUND: COC(=O)N/N=C/c1c[n+]([O-])c2ccccc2[n+]1[O-]
UNITS_SYMBOL: %
RECORDED_NUMBER: 78.3
//
COMPOUND: O=C1NCCN1c1ncc([N+](=O)[O-])s1
UNITS_SYMBOL: %
RECORDED_NUMBER: 85.3
//
COMPOUND: O=C(N[C@H](CO)[C@H](O)c1ccc([N+](=O)[O-])cc1)C(Cl)Cl
UNITS_SYMBOL: %
RECORDED_NUMBER: 89.3
//
COMPOUND: Nc1c2ccccc2nc2ccccc12
UNITS_SYMBOL: %
RECORDED_NUMBER: 40.9

* * *

Quick list: percent growth inhibition of drug alone per entry.
test system: Klebsiella pneumoniae NCTC-13439; assay: percent growth inhibition of drug alone vs DMSO control; higher = more growth inhibition; details: antibiotic (0.125x MIC): none (0.1% DMSO); 20 µM
Where a name gives a salt, the structure may show the parent alone.

COMPOUND: O=c1[nH]c(=O)n([C@H]2C[C@H](O)[C@@H](CO)O2)cc1F
UNITS_SYMBOL: %
percent growth inhibition of drug alone: 99.6
//
COMPOUND: CO[C@H]1/C=C/O[C@@]2(C)Oc3c(C)c(O)c4c(O)c(c5c(nc6cc(C)ccn65)c4c3C2=O)NC(=O)/C(C)=C\C=C\[C@H](C)[C@H](O)[C@@H](C)[C@@H](O)[C@@H](C)[C@H](OC(C)=O)[C@@H]1C
UNITS_SYMBOL: %
percent growth inhibition of drug alone: 17.5
//
COMPOUND: O=C1OCCN1/N=C/c1ccc([N+](=O)[O-])o1
UNITS_SYMBOL: %
percent growth inhibition of drug alone: 49.8
//
COMPOUND: O=C(O)c1cn(-c2ccc(F)cc2)c2cc(N3CCNCC3)c(F)cc2c1=O
UNITS_SYMBOL: %
percent growth inhibition of drug alone: 98.4
//
COMPOUND: CO[C@H]1/C=C/O[C@@]2(C)Oc3c(C)c(O)c4c(O)c(c(/C=N/N5CCN(C6CCCC6)CC5)c(O)c4c3C2=O)NC(=O)/C(C)=C\C=C\[C@H](C)[C@H](O)[C@@H](C)[C@@H](O)[C@@H](C)[C@H](OC(C)=O)[C@@H]1C
UNITS_SYMBOL: %
percent growth inhibition of drug alone: 11.1
//
COMPOUND: N=C(NCCCCCCNC(=N)NC(=N)Nc1ccc(Cl)cc1)NC(=N)Nc1ccc(Cl)cc1
UNITS_SYMBOL: %
percent growth inhibition of drug alone: 57.6
//
COMPOUND: O=C(OCC(O)CO)c1ccccc1Nc1ccnc2cc(Cl)ccc12 (stereo not drawn) [Glafenine hydrochloride]
UNITS_SYMBOL: %
percent growth inhibition of drug alone: 3.73
//
COMPOUND: OCCOCCN1CCN(C2=Nc3ccccc3Sc3ccccc32)CC1 [Quetiapine hemifumarate]
UNITS_SYMBOL: %
percent growth inhibition of drug alone: -5.29
//
COMPOUND: CC[C@H]1OC(=O)[C@H](C)[C@@H](O[C@H]2C[C@@](C)(OC)[C@@H](O)[C@H](C)O2)[C@H](C)[C@@H](O[C@@H]2O[C@H](C)C[C@H](N(C)C)[C@H]2O)[C@](C)(O)C[C@@H](C)CN(C)[C@H](C)[C@@H](O)[C@]1(C)O
UNITS_SYMBOL: %
percent growth inhibition of drug alone: 74.4
//
COMPOUND: CC(=O)CCCCn1c(=O)c2c(ncn2C)n(C)c1=O
UNITS_SYMBOL: %
percent growth inhibition of drug alone: 2.73
//
COMPOUND: COc1ccc(OC)c(C(O)CNC(=O)CN)c1 (stereo not drawn) [Midodrine hydrochloride]
UNITS_SYMBOL: %
percent growth inhibition of drug alone: -4.02
//
COMPOUND: NC(=O)N/N=C/c1ccc([N+](=O)[O-])o1
UNITS_SYMBOL: %
percent growth inhibition of drug alone: 11.8
//
COMPOUND: NC1CCN(c2nc3c(cc2F)c(=O)c(C(=O)O)cn3-c2ccc(F)cc2F)C1 (stereo not drawn) [Tosufloxacin hydrochloride]
UNITS_SYMBOL: %
percent growth inhibition of drug alone: 99.4
